# system name: SARS-CoV-2 RBD E484K mutant (SARS-CoV-2, UniProt P0DTC2 334-527)
attribute measured: binding affinity fold change relative to RBD WT (fold)
Numbers only, in fold.

{"binder": "Nb105 (VHH) VHH: HVQLVESGGGLVQAGGSLRLSCAVSGRTFSTYGMAWFRQAPGKERDFVATITRSGETTLYADSVKGRFTISRDNAKNTVYLQMNSLKIEDTAVYYCAVRRDSSWGYSRDLFEYDYWGQGTQVTVSS", "value reported": 1.02}
{"binder": "Nb36 (VHH) VHH: HVQLVESGGGLVQAGGSLTLTCAASGRTFSSETMDMGWFRQAPGKEREFVAADSWNDGSTYYADSVKGRFTISRDSAKNTLYLQMNSLKPEDTAVYYCAAETYSIYEKDDSWGYWGQGTQVTVSS", "value reported": 1.29}
{"binder": "Nb34 (VHH) VHH: DVQLVESGGGLVQAGGSLRLSCAASGFTFSNYVMYWGRQAPGKGREWVSGIDSDGSDTAYASSVKGRFTISRDNAKNTLYLQMNNLKPEDTALYYCVKSKDPYGSPWTRSEFDDYWGQGTQVTVSS", "value reported": 1.07}

q: Which binding affinity fold change relative to RBD WT value belongs to Nb95 (VHH) VHH: QVQLVESGGGLVQAGGSLRLSCAASGRTFSSYSMGWFRQAQGKEREFVATINGNGRDTYYTNSVKGRFTISRDDATNTVYLQMNSLKPEDTAIYYCAADKDVYYGYTSFPNEYEYWGQGTQVTVSS ?
a: 1.15
